Study System: P-gp (ABCB1) (Homo sapiens, UniProt P08183)
Sequence (P08183 whole entry): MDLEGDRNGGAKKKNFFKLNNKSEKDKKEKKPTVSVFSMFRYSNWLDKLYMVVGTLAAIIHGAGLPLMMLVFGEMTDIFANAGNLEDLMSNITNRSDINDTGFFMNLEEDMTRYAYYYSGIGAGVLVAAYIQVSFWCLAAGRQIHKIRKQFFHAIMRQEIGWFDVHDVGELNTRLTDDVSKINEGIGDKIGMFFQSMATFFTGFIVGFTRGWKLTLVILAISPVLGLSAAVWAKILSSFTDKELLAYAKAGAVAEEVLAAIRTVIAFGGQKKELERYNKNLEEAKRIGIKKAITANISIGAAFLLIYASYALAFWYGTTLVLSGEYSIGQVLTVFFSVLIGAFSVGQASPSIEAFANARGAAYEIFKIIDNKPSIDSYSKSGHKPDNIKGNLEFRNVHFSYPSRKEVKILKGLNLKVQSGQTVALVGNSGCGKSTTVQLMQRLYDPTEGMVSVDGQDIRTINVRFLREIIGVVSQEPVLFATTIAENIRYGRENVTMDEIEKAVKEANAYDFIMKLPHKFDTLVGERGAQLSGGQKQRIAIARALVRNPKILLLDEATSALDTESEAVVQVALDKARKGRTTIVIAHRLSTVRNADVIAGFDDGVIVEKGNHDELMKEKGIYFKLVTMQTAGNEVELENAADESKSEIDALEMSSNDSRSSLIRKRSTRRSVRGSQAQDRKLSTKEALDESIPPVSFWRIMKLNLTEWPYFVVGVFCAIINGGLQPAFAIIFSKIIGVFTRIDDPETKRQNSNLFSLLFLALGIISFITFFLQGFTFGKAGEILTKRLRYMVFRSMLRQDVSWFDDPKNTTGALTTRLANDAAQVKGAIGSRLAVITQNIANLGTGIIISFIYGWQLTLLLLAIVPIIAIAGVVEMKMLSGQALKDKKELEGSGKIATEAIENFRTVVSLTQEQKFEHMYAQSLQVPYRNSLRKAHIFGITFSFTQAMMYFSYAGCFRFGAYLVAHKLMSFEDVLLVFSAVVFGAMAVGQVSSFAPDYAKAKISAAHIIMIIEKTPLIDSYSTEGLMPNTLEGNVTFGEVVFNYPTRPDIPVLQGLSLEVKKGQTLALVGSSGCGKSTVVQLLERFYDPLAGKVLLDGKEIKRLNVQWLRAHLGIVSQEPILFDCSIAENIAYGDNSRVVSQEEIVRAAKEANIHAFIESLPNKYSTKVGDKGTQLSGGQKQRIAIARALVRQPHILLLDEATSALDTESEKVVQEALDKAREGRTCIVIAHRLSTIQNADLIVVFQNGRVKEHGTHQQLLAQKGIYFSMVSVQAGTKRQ
Method Notes: Inhibition of P-gp in doxorubicin-resistant human HepG2 cells assessed as potentiation of doxorubicin cytostatic effect at 6.25 uM by MTT assay
Type: cell-based
Applied Conditions: probe doxorubicin
Value Kind: inhibition at 6.25 µM (%)
Give bare numbers, in %.

Request: Fill in reported inhibition at 6.25 µM for this entry: "Cc1coc2c1C(=O)C(=O)c1c-2ccc2c(C)cccc12"
Response: 50

====

Tested on: HepG2
Method Notes: Cytotoxicity against doxorubicin resistant human HepG2 cells expressing wild type p53 gene by MTT assay
Assay type: functional, cell-based
So I've got a bunch of compounds here, and I need their EC50 values.

Cc1coc2c1C(=O)C(=O)c1c-2ccc2c(C)cccc12 = > 10 µM

Okay, here is my list. What is EC50 for each of these?
1. COc1cccc2c1C(=O)c1c(O)c3c(c(O)c1C2=O)C[C@@](O)(C(=O)CO)C[C@@H]3O[C@H]1C[C@H](N)[C@H](O)[C@H](C)O1
2. Cc1cccc2c3c(ccc12)C1=C(C(=O)C3=O)[C@@H](C)CO1 [DIHYDROTANSHINONE I]

Response:
1: > 10 µM; 2: 4.7 µM

====

Method Notes: Cytotoxicity against human THLE3 cells by MTT assay
Assay type: cell-based
Value Kind: EC50
Phrase the answer as number then unit, nothing more needed.

Worked examples, 3 compounds total:
Cc1coc2c1C(=O)C(=O)c1c-2ccc2c(C)cccc12 = 74.1 µM
Cc1coc2c1C(=O)C(=O)c1c-2ccc2c1CCCC2(C)C = 57.5 µM
Cc1cccc2c3c(ccc12)C1=C(C(=O)C3=O)[C@@H](C)CO1 [DIHYDROTANSHINONE I] = 6.5 µM

# ---- query compound ----
Request: Fill in reported EC50 for this entry: "C[C@H]1COC2=C1C(=O)C(=O)c1c2ccc2c1CCCC2(C)C"
Response: 22.9 µM
